# Tested on: P. falciparum male gametocytes
# Protocol description: P. falciparum Dual Gamete Formation Assay (PfDGFA), male readout (exflagellation)
# Type: cell-based, Plasmodium falciparum NF54
# Experimental conditions: this study; read-out: Pf DGFA IC50 MALE
Listed below: IC50 values for each entry.

{"Compound": "CCC1=C[C@@H]2CN(C1)Cc1c([nH]c3ccccc13)[C@@](C(=O)OC)(c1cc3c(cc1OC)N(C)[C@H]1[C@@](O)(C(=O)OC)[C@H](O)[C@]4(CC)C=CCN5CC[C@]31[C@@H]54)C2.O=S(=O)(O)O [TC21]", "IC50, µM": 0.01}
{"Compound": "Cc1cc(Nc2ccncc2)n2nc(C)c(-c3ccc(Cl)cc3)c2n1 [TC79]", "IC50, µM": 0.95}
{"Compound": "CC(C)(C)c1ccc(-c2nc3c(ccc4nc(N)nc(N)c43)[nH]2)cc1.Cl [TC05]", "IC50, µM": 0.18}
{"Compound": "CCCCNS(=O)(=O)c1ccc(NC(=O)c2cc([N+](=O)[O-])ccc2Cl)cc1 [TC52]", "IC50, µM": 0.37}

====

In this section, each of the compounds is paired with its reported inhibition at 2 µM.
# System: P. falciparum male gametocytes
# Protocol description: P. falciparum Dual Gamete Formation Assay (PfDGFA), male readout (exflagellation)
# Type: cell-based, Plasmodium falciparum NF54
# Experimental conditions: Plasmodium falciparum; 2µM, 24h preincubation with gametocytes; replicate R4; read-out: % inhibition male (individual replicates) R4

{"Compound": "Cl.O=C1Nc2ccc3ncccc3c2/C1=C/Nc1ccc(N2CCN(CCO)CC2)cc1", "inhibition at 2 µM, %": 100}
{"Compound": "Nc1cc(C=Cc2ccc([N+](=O)[O-])s2)nc2ccccc12", "inhibition at 2 µM, %": 102}
{"Compound": "O=c1c(Br)ccccc1Br", "inhibition at 2 µM, %": 99.6}
{"Compound": "Br.c1cc(C2=NC3CCCCC3N2)ccc1OCCCOc1ccc(C2=NC3CCCCC3N2)cc1 (centres unmarked)", "inhibition at 2 µM, %": 103}
{"Compound": "CCS(=O)(=O)Nc1ccc2c(c1)/C(=C(/Nc1ccc(CN3CCCCC3)cc1)c1ccccc1)C(=O)N2", "inhibition at 2 µM, %": 95.2}
{"Compound": "Cc1cc(Nc2ccncc2)n2nc(C)c(-c3ccc(Cl)cc3)c2n1", "inhibition at 2 µM, %": 98}
{"Compound": "O=C(O)C(F)(F)F.O=c1[nH]ccc2nc(N[C@@H]3CCCNC3)nc(Nc3ccc(S(=O)(=O)N4CCOCC4)cc3)c12", "inhibition at 2 µM, %": 98.2}
{"Compound": "Br.c1cc(Nc2nc(-c3ccc(-c4csc(Nc5ccncc5)n4)cc3)cs2)ccn1", "inhibition at 2 µM, %": 91.8}

====

# Tested on: HepG2 cells
# Protocol description: HepG2 cytotoxicity counter-screen
# Experimental conditions: cytotoxic activity against HepG2 cells
# label = 1 if Tox50 < 3 µM else 0

{"Compound": "CCN1CCN(c2ccc(Nc3c4ccccc4nc4ccccc34)cc2)CC1", "Class assignment": 0}
{"Compound": "COc1cc(CNCCCCCCNCc2cc(OC)c3ccccc3c2OC)c(OC)c2ccccc12.CS(=O)(=O)O", "Class assignment": 0}
{"Compound": "Cl.Cl.c1ccc2c(NCCCCCCNc3c4ccccc4nc4ccccc34)c3ccccc3nc2c1", "Class assignment": 0}
{"Compound": "COc1ccc(C[C@H](N)C(=O)N[C@H]2[C@@H](O)[C@H](n3cnc4c(N(C)C)ncnc43)O[C@@H]2CO)cc1", "Class assignment": 0}
{"Compound": "CCCCOc1ccc(CNCCCCCCNCc2ccc(OCCCC)c3ccccc23)c2ccccc12.CS(=O)(=O)O", "Class assignment": 1}
{"Compound": "CNC(=O)c1ccccc1Nc1nc(Nc2cccc(CS(C)(=O)=O)c2)ncc1C.O=CO", "Class assignment": 1}
{"Compound": "Cl.NCC1(c2nc(-c3ccc(Cl)c(O)c3)c(-c3ccncc3)[nH]2)CCCCC1", "Class assignment": 0}
{"Compound": "CN1CCN(CCCNCc2cccc(-c3ccc(CNCCc4ccccc4)cc3)c2)CC1.O=C(O)C(F)(F)F", "Class assignment": 0}
{"Compound": "CS(=O)(=O)O.FC(F)(F)COc1ccc2ccccc2c1CCNCCCCNCCc1c(OCC(F)(F)F)ccc2ccccc12", "Class assignment": 1}
{"Compound": "CCN(CC)CCOc1ccc(C(O)(C#CC(O)(c2ccc(Br)cc2)c2ccc(OCCN(CC)CC)cc2)c2ccc(Br)cc2)cc1 (stereo not shown)", "Class assignment": 1}
{"Compound": "CS(=O)(=O)O.c1ccc2c(CNCCCCCCNCc3c(OCC4CC4)ccc4ccccc34)c(OCC3CC3)ccc2c1", "Class assignment": 0}
{"Compound": "Cl.NC(=O)c1ccccc1Nc1nc(Nc2cccc(N3CCN(CCO)CC3)c2)ncc1Cl", "Class assignment": 0}
{"Compound": "O=C1Nc2ccccc2C1=NNC(=S)N1CCOCC1", "Class assignment": 0}
{"Compound": "COc1ccccc1-c1nc2c(ccc3nc(N)nc(N)c32)[nH]1", "Class assignment": 1}
{"Compound": "CC(=NNC(=S)NC(C)(C)C)c1ccccn1", "Class assignment": 1}
{"Compound": "CCc1cc2c(Sc3nnc(N)s3)ncnc2s1", "Class assignment": 0}
